- Tested on: ChaGo-K-1
- assayInfo: relative viability (nuclei count vs DMSO), 5 days (fraction); higher = more cells survive
- conditionSet: first compound 0.01581 µM
resultType: relative viability
Give the value as a plain number.

Sample CC1(C)CCC(c2ccc(Cl)cc2)=C(CN2CCN(c3ccc(C(=O)NS(=O)(=O)c4ccc(N[C@H](CCN5CCOCC5)CSc5ccccc5)c(S(=O)(=O)C(F)(F)F)c4)cc3)CC2)C1 [Navitoclax] + CS(=O)(=O)N1CCN(Cc2cc3nc(-c4cccc5[nH]ncc45)nc(N4CCOCC4)c3s2)CC1 [Pictilisib] (partner 1 µM) ; relative viability observed: 0.799

Notebook: CC1(C)CCC(c2ccc(Cl)cc2)=C(CN2CCN(c3ccc(C(=O)NS(=O)(=O)c4ccc(N[C@H](CCN5CCOCC5)CSc5ccccc5)c(S(=O)(=O)C(F)(F)F)c4)cc3)CC2)C1 [Navitoclax] + N=C(N)NC(=N)NCCc1ccccc1 [Phenformin] (partner 250 µM) , relative viability read as 0.502

Value of relative viability reported for the compound CC1(C)CCC(c2ccc(Cl)cc2)=C(CN2CCN(c3ccc(C(=O)NS(=O)(=O)c4ccc(N[C@H](CCN5CCOCC5)CSc5ccccc5)c(S(=O)(=O)C(F)(F)F)c4)cc3)CC2)C1 [Navitoclax] + NC(=O)Nc1cc(-c2cccc(F)c2)sc1C(=O)N[C@H]1CCCNC1 [AZD7762] (partner 0.2 µM) is 0.875

Data point: CC1(C)CCC(c2ccc(Cl)cc2)=C(CN2CCN(c3ccc(C(=O)NS(=O)(=O)c4ccc(N[C@H](CCN5CCOCC5)CSc5ccccc5)c(S(=O)(=O)C(F)(F)F)c4)cc3)CC2)C1 [Navitoclax] + COc1cc2c(Oc3ccc(NC(=O)C4(C(=O)Nc5ccc(F)cc5)CC4)cc3F)ccnc2cc1OCCCN1CCOCC1 [Foretinib] (partner 0.25 µM) ; relative viability = 0.94
